Parameter: kd. Scope: all listed entries.
Target: T1, human Amyloid beta 1-42 peptide (Homo sapiens, UniProt P05067)
T1 construct: biotinylated human Amyloid beta 1-42 peptide (rpeptide, USA; cat: A1117); purchased rPeptide, USA A1117; host or cells: synthetic peptide
T1 sequence (P05067 672-713): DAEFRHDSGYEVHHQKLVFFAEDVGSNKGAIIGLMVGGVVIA
Assay: Surface Plasmon Resonance kinetic profiling of purified scFv (ProteOn)
Type: binding
Settings: biotinylated human Amyloid beta 1-42 on streptavidin chip
Provide the reading as a plain figure in s⁻¹.

Worked examples follow.
>>> reported("Abet0372: optimized anti-Aβ1-42 clone derived from Abet0144-GL (protein, left off: small tags and cut ends, optimized anti-Aβ1-42 clone derived from Abet0144-GL) scFv (part 1 of 2): EVQLLESGGGLVQPGGSLRLSCAASSDMFNIETMWWVRQAPGKGLEWVSVIGKGMNNVSYADSVKGRFTISRDNSKNTLYLQMNSLRAEDTAVYYCAREWMDHSRPYYYYGMDVWGQGTLVTVSS scFv (part 2 of 2): SYELTQPPSVSVSPGQTASITCSGHNLEDKFASWYQQKPGQSPVLVIYRDDKRPSGIPERFSASNSGHTATLTISGTQATDEADYYCSSQDTVTRVFGGGTKLTVL")
0.000176
>>> reported("Abet0144-GL: parent anti-Aβ antibody clone, germlined; VH domain SEQ ID NO: 20 and VL domain SEQ ID NO: 29 (antibody, listed as Homo sapiens, V domains shown, /note=“Abet0144-GL”) VH: EVQLLESGGGLVQPGGSLRLSCAASGFTFSVYTMWWVRQAPGKGLEWVSVIGSSGGTTVYADSVKGRFTISRDNSKNTLYLQMNSLRAEDTAVYYCAREWMDHSRPYYYYGMDVWGQGTLVTVSS VL: SYELTQPPSVSVSPGQTASITCSGHNLEDKFASWYQQKPGQSPVLVIYRDDKRPSGIPERFSASNSGHTATLTISGTQAMDEADYYCQAQDSTTRVFGGGTKLTVL")
0.0066
>>> reported("Abet0342: optimized anti-Aβ1-42 clone derived from Abet0144-GL (protein, left off: small tags and cut ends, optimized anti-Aβ1-42 clone derived from Abet0144-GL) scFv (part 1 of 2): EVQLLESGGGLVQPGGSLRLSCAASGFDFRRSVMWWVRQAPGKGLEWVSVIGAQTQNKAYADSVKGRFTISRDNSKNTLYLQMNSLRAEDTAVYYCAREWMDHSRPYYYYGMDVWGQGTLVTVSS scFv (part 2 of 2): SYELTQPPSVSVSPGQTASITCSGHNLEDKFASWYQQKPGQSPVLVIYRDDKRPSGIPERFSASNSGDTATLTISGTQAMDEADYYCQAQDSTTRVFGGGTKLTVL")
"5.73e-05"

Moving on to another molecule below.
So, Abet0369: optimized anti-Aβ1-42 clone derived from Abet0144-GL (protein, left off: small tags and cut ends, optimized anti-Aβ1-42 clone derived from Abet0144-GL) scFv (part 1 of 2): EVQLLESGGGLVQPGGSLRLSCAASSFQISKNTMWWVRRAPGKGLEWVSVIGKDETRFNYADSVKGRFTISRDNSKNTLYLQMNSLRAEDTAVYYCAREWMDHSRPYYYYGMDVWGQGTLVTVSS scFv (part 2 of 2): SYGLTQPPSVSVSPGQTASITCSGRNIGDSWVAWYQQKPGQSPVLVIYRDDKRPSGIPERFSASNSGHTATLTISGTQATDEADYYCSSQDTVTRVFGGGTKLTVL ? Its kd was 4.34e-05
